# System: HT-29
# Assay overview: NCI tumour cell line growth inhibition, 48 h
Activity calls are given as the source filed them. Rule as the data show it: active = GI50 up to about 1.1 µM and inactive = higher.
Classes used: yes (active), no (inactive)

>>> df
                                   compound  target_entity  assigned_class
0  O=C(c1ccccc1)C1C(c2ccccc2[N+](=O)[O-])N1C1CCCCC1 (stereo not given)          HT-29              no
1  CCOC(=O)C(SCCO)C(C(=O)OCC)n1cnc2c(N)ncnc21 (stereo not given)          HT-29              no
2      C/C(=N\Nc1nc2ccccc2o1)c1cc2ccccc2cn1          HT-29             yes
3  COc1cc2c(cc1OCCCCN1CCN(CCCCOc3cc4c(cc3OC)C(=O)N3CCC[C@H]3C=N4)CC1)N=C[C@@H]1CCCN1C2=O          HT-29             yes
4  Cc1nc(N)sc1C(=O)/C=C/c1ccc([N+](=O)[O-])cc1          HT-29              no
